test system: Malme-3M; experiment: Growth inhibition of human MALME-3M cells incubated for 48 hrs by sulforhodamine B assay; type: functional, cell-based; details: read-out: TGI
// reported TGI per item

>  <Mol>
COc1cc(Cl)cc(-c2nn(-c3cccc(NC(=O)Nc4ccc(Cl)c(Cl)c4)c3)cc2-c2ccncc2)c1

>  <Measured on>
Malme-3M

>  <Relation symbol>
=

>  <TGI [µM]>
75.5

$$$$
>  <Mol>
O=C(Nc1cccc(-n2cc(-c3ccncc3)c(-c3cc(O)cc(Cl)c3)n2)c1)c1ccc(N2CCOCC2)c(C(F)(F)F)c1

>  <Measured on>
Malme-3M

>  <Relation symbol>
=

>  <TGI [µM]>
51.9

$$$$
>  <Mol>
COc1cc(Cl)cc(-c2nn(-c3cccc(NC(=O)c4ccc(N5CCOCC5)c(C(F)(F)F)c4)c3)cc2-c2ccncc2)c1

>  <Measured on>
Malme-3M

>  <Relation symbol>
>

>  <TGI [µM]>
100

$$$$
>  <Mol>
COc1cc(Cl)cc(-c2nn(-c3cccc(NC(=O)Nc4cccc(C(F)(F)F)c4)c3)cc2-c2ccncc2)c1

>  <Measured on>
Malme-3M

>  <Relation symbol>
=

>  <TGI [µM]>
59.1

$$$$

---

test system: SR; experiment: Growth inhibition of human SR cells assessed as cell growth at 0.01 uM incubated for 48 hrs by sulforhodamine B assay relative to control; assay type: functional; settings: read-out: Activity
The threshold is 90%. Values of growth at 0.01 µM beneath it are tagged T; values meeting or exceeding it are tagged F.

>  <Mol>
O=C(Nc1cccc(-n2cc(-c3ccncc3)c(-c3cc(O)cc(Cl)c3)n2)c1)Nc1ccc(Cl)c(Cl)c1

>  <Group label>
T

$$$$
>  <Mol>
COc1cc(Cl)cc(-c2nn(-c3cccc(NC(=O)c4ccc(N5CCOCC5)c(C(F)(F)F)c4)c3)cc2-c2ccncc2)c1

>  <Group label>
F

$$$$
>  <Mol>
O=C(Nc1cccc(-n2cc(-c3ccncc3)c(-c3cc(O)cc(Cl)c3)n2)c1)Nc1ccc(Cl)c(C(F)(F)F)c1

>  <Group label>
F

$$$$
>  <Mol>
O=C(Nc1cccc(-n2cc(-c3ccncc3)c(-c3cc(O)cc(Cl)c3)n2)c1)c1cc(C(F)(F)F)cc(C(F)(F)F)c1

>  <Group label>
F

$$$$

---

GI50 values by entry
test system: MDA-MB-435; assay: Growth inhibition of human MDA-MB-435 cells incubated for 48 hrs by sulforhodamine B assay; assay type: functional, cell-based; details: MDA-MB-435, 48 h, read-out: pGI50 (converted)

>  <Mol>
COc1cc(Cl)cc(-c2nn(-c3cccc(NC(=O)Nc4cccc(C(F)(F)F)c4)c3)cc2-c2ccncc2)c1

>  <GI50>
1740 nM

$$$$
>  <Mol>
COc1cc(Cl)cc(-c2nn(-c3cccc(NC(=O)Nc4ccc(Cl)c(Cl)c4)c3)cc2-c2ccncc2)c1

>  <GI50>
2090 nM

$$$$
>  <Mol>
COc1cc(Cl)cc(-c2nn(-c3cccc(NC(=O)Nc4ccc(Cl)c(C(F)(F)F)c4)c3)cc2-c2ccncc2)c1

>  <GI50>
1740 nM

$$$$
>  <Mol>
O=C(Nc1cccc(-n2cc(-c3ccncc3)c(-c3cc(O)cc(Cl)c3)n2)c1)Nc1ccc(Cl)c(Cl)c1

>  <GI50>
1580 nM

$$$$
>  <Mol>
COc1cc(Cl)cc(-c2nn(-c3cccc(NC(=O)c4cccc(C(F)(F)F)c4)c3)cc2-c2ccncc2)c1

>  <GI50>
> 100000 nM

$$$$
